- Tested on: ONS-76 (Other Solid Carcinomas)
- EXPERIMENTAL DETAILS: Bliss excess, mean over the matrix (fraction); higher = more synergy;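 note: after 72 h of two-drug dosing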
VALUE KIND: Bliss excess

- COMPOUND: "CN(CCO)CC[C@H](CSc1ccccc1)Nc1ccc(S(=O)(=O)NC(=O)c2ccc(N3CCC([C@@H](O)c4ccccc4-c4ccc(Cl)cc4)CC3)cc2)cc1S(=O)(=O)C(F)(F)F [AZD4320] + Cn1cnc2c(F)c(Nc3ccc(Br)cc3Cl)c(C(=O)NOCCO)cc21 [Selumetinib] (first compound max 1 µM, 7x7, partner max 3 µM)"
  VALUE KIND: "Bliss excess"
  REPORTED RESULT: 0.019
- COMPOUND: "Cc1nc(Nc2ncc(C(=O)Nc3c(C)cccc3Cl)s2)cc(N2CCN(CCO)CC2)n1 [Dasatinib] + CC(=O)Nc1cccc(-n2c(=O)n(C3CC3)c(=O)c3c(Nc4ccc(I)cc4F)n(C)c(=O)c(C)c32)c1 [Trametinib] (first compound max 2 µM, 7x7, partner max 1 µM)"
  VALUE KIND: "Bliss excess"
  REPORTED RESULT: -0.0206
- COMPOUND: "CCN(CCO)CCCOc1ccc2c(Nc3cc(CC(=O)Nc4cccc(F)c4)[nH]n3)ncnc2c1 [AZD2811] + O=C(c1cc(Cc2n[nH]c(=O)c3ccccc23)ccc1F)N1CCN(C(=O)C2CC2)CC1 [Olaparib] (first compound max 1 µM, 7x7, partner max 10 µM)"
  VALUE KIND: "Bliss excess"
  REPORTED RESULT: -0.0103

###

- System: ARH-77 (Non-Cancerous)
- EXPERIMENTAL DETAILS: Bliss excess, mean over the matrix (fraction); higher = more synergy
// Bliss excess lookup, one value per entry

- MOLECULE: "CN(CCO)CC[C@H](CSc1ccccc1)Nc1ccc(S(=O)(=O)NC(=O)c2ccc(N3CCC([C@@H](O)c4ccccc4-c4ccc(Cl)cc4)CC3)cc2)cc1S(=O)(=O)C(F)(F)F [AZD4320] + CN(C)CCCOc1ccc(-c2ccc3ncc4c(c3c2)n(C2CCOCC2)c(=O)n4C)cn1 [AZD0156] (first compound max 1 µM, 7x7, partner max 1 µM)"
  SYSTEM: "ARH-77 (Non-Cancerous)"
  Bliss excess: -0.0283
- MOLECULE: "Cc1nc(Nc2ncc(C(=O)Nc3c(C)cccc3Cl)s2)cc(N2CCN(CCO)CC2)n1 [Dasatinib] + CC(=O)Nc1cccc(-n2c(=O)n(C3CC3)c(=O)c3c(Nc4ccc(I)cc4F)n(C)c(=O)c(C)c32)c1 [Trametinib] (first compound max 2 µM, 7x7, partner max 1 µM)"
  SYSTEM: "ARH-77 (Non-Cancerous)"
  Bliss excess: -0.0311
- MOLECULE: "C=CCn1c(=O)c2cnc(Nc3ccc(N4CCN(C)CC4)cc3)nc2n1-c1cccc(C(C)(C)O)n1 [AZD1775] + O=C(c1cc(Cc2n[nH]c(=O)c3ccccc23)ccc1F)N1CCN(C(=O)C2CC2)CC1 [Olaparib] (first compound max 1 µM, partner max 10 µM)"
  SYSTEM: "ARH-77 (Non-Cancerous)"
  Bliss excess: -0.004
- MOLECULE: "CN(CCO)CC[C@H](CSc1ccccc1)Nc1ccc(S(=O)(=O)NC(=O)c2ccc(N3CCC([C@@H](O)c4ccccc4-c4ccc(Cl)cc4)CC3)cc2)cc1S(=O)(=O)C(F)(F)F [AZD4320] + C=CCn1c(=O)c2cnc(Nc3ccc(N4CCN(C)CC4)cc3)nc2n1-c1cccc(C(C)(C)O)n1 [AZD1775] (first compound max 1 µM, partner max 1 µM)"
  SYSTEM: "ARH-77 (Non-Cancerous)"
  Bliss excess: -0.0449
